composite z-score for assorted compounds
Tested on: Noggin (protein binding on small-molecule microarray)
METHOD: small molecules binding Noggin protein – biochemical, 635/667 nm fluorescence, primary screen (AID 1095);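 further: score merges 667 nm feature fluorescence with signal to noise over triplicate slides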
DETAILS: 635 nm fluorescence, higher = more signal

COMPOUND | SUBJECT_OF_TEST | composite z-score
COC(=O)c1c(CC[C@@H](CO)NC(=O)Nc2ncn[nH]2)oc(C(=O)Cc2ccccc2)c1C(=O)OC | Noggin (protein binding on small-molecule microarray) | 0.565
C=CC[C@@]1(C(=O)NCCN2CCOCC2)N=C(c2ccc(OCCCO)cc2)O[C@@H]1c1ccccc1CN=[N+]=[N-] | Noggin (protein binding on small-molecule microarray) | -0.0392
CC(=O)NCCCC[C@@H]1NC(=O)[C@@H]2C[C@H](C(=O)NCc3ccc(F)cc3)[C@H](c3ccc(O)cc3)N2C1=O | Noggin (protein binding on small-molecule microarray) | 1.67
CCCNC(=O)[C@@]1(c2ccc([N+](=O)[O-])cc2)CC(=O)N(CC23CC4CC(CC(C4)C2)C3)[C@@H]1c1ccc(CO)cc1I | Noggin (protein binding on small-molecule microarray) | 0.367
C=C(CCCC)C(=O)CC[C@@H](OC(=O)c1ccccc1-c1ccccc1C(=O)O)c1ccc(CO)o1 | Noggin (protein binding on small-molecule microarray) | 1.24
COc1ccc([Si](C)(C)[C@@H]2[C@@H](CCn3cc([C@H](O)c4ccccc4)nn3)O[C@]3(C(=O)N(C)c4ccccc43)[C@H]2C)cc1 | Noggin (protein binding on small-molecule microarray) | -0.133
CN1C(=O)C2C(C1=O)C1C=C(c3ccc(CO)cc3)C2C(C2CC2)N1Cc1cc2c(cc1Br)OCO2 (stereo not given) | Noggin (protein binding on small-molecule microarray) | 0.268
C=CCN1C(=O)[C@]2(Cc3ccccc31)N=C(c1ccc(OCCCO)cc1)O[C@@H]2c1ccccc1 | Noggin (protein binding on small-molecule microarray) | 0.555
C=CCC(OC(C)=O)[C@@H]1[C@@H](N(Cc2cc3ccccc3o2)C(=O)c2cccc3ccccc23)c2cc(OCCCO)ccc2N1C(=O)Cc1ccc2ccccc2c1 (stereo not given in full) | Noggin (protein binding on small-molecule microarray) | -0.233
[N-]=[N+]=NCc1ccccc1C[C@]1(C(=O)NCCN2CCOCC2)N=C(c2ccc(OCCCO)cc2)O[C@H]1c1ccccc1CN=[N+]=[N-] | Noggin (protein binding on small-molecule microarray) | 1.16
Cn1c2c(c3ccccc31)C(=O)C1NC2C=CC1(C)C(=O)OCc1ccccc1 (stereo not given) | Noggin (protein binding on small-molecule microarray) | -2.04
COC(=O)[C@@]1(Cc2ccc(OC)cc2)[C@H]2c3cc(C(=O)N(C)C)n(CCSCCO)c3C[C@H]2CN1C(=O)c1ccccc1 | Noggin (protein binding on small-molecule microarray) | 0.281
O=C1O[C@@H](c2ccccc2)[C@@H](c2ccccc2)N2[C@@H](c3ccccc3OCCO)[C@]3(C(=O)Nc4ccc(C#CC5(O)CCCCCC5)cc43)[C@@H](C(=O)NC[C@H](O)c3ccccc3)[C@H]12 | Noggin (protein binding on small-molecule microarray) | 1.69
CC(C)[C@H]1COC(=O)N1C(=O)[C@H]1[C@@H](c2ccccc2)N(c2ccccc2)O[C@@H]1C | Noggin (protein binding on small-molecule microarray) | 0.403
CN1C(=O)C2C=CC(C(O)c3ccccc3)N(NC(=O)OC(C)(C)C)C2C1=O (stereo not given) | Noggin (protein binding on small-molecule microarray) | -0.201
CC(c1ccccc1)C(O)C1C=CC2C(=O)N(Cc3ccccc3)C(=O)C2N1n1cnnc1 (stereo not given) | Noggin (protein binding on small-molecule microarray) | 0.483
CN1C(=O)C2C(C1=O)C1C=C(c3ccc(CO)cc3)C2C(C2CC2)N1Cc1sc2ccccc2c1Cl (stereo not given) | Noggin (protein binding on small-molecule microarray) | 0.411
C=C(COC)C(=O)CC[C@H](OC(=O)c1cccnc1)c1ccccc1OCCO | Noggin (protein binding on small-molecule microarray) | 1.15
CC(C)NC(=O)[C@@]1(c2ccc([N+](=O)[O-])cc2)CC(=O)N(C(C)C)[C@@H]1c1ccc(CO)cc1 | Noggin (protein binding on small-molecule microarray) | -1.14
O=C(NCc1ccccc1)[C@@H]1c2ccccc2C(=O)N(C2CCCCC2)[C@H]1c1ccc(CO)cc1 | Noggin (protein binding on small-molecule microarray) | 1.41
CCOC1=C2C(c3ccc(C)cc3)N(S(=O)(=O)c3ccc(C)cc3)CC2n2c(=O)n(-c3ccccc3)c(=O)n2C1 (stereo not given) | Noggin (protein binding on small-molecule microarray) | 0.351
C=CCOC(=O)[C@@H]1[C@H]2C(=O)O[C@H](c3ccccc3)[C@H](c3ccccc3)N2[C@H](c2ccc(OCCOC(=O)[C@H]3C[C@H]4C(=O)N[C@@H](CC(C)C)C(=O)N4[C@H]3c3cccc(OCCO)c3)cc2)[C@@]12C(=O)Nc1ccc(I)cc12 | Noggin (protein binding on small-molecule microarray) | 1.58
Oc1ccc2cc[n+](Cc3cccc(OC(F)(F)F)c3)cc2c1 | Noggin (protein binding on small-molecule microarray) | 1.26
COCCCNC(=O)[C@@]1(Cc2ccccc2I)c2ccccc2C(=O)N(Cc2ccccc2)[C@H]1c1ccc(CO)cc1 | Noggin (protein binding on small-molecule microarray) | -1.27
CCCC[C@H]1OB(O)C[C@H]2C1=C(COc1ccccc1)C[C@H]1C(=O)N(Cc3ccccc3)C(=O)[C@H]12 | Noggin (protein binding on small-molecule microarray) | 1.51
C=C(/C(=C/C[C@@H](OC(=O)c1ccncc1)c1ccc(CO)o1)c1cc(C(=O)OC)ccc1OC)C(C)C | Noggin (protein binding on small-molecule microarray) | 0.855
C=C(C(=O)CC[C@@H](OC(=O)c1cccnc1)c1ccc(OCCO)cc1)C(C)C | Noggin (protein binding on small-molecule microarray) | 1.58
[N-]=[N+]=NCc1ccccc1[C@@H]1OC(c2ccc(OCCCO)cc2)=N[C@]1(Cc1ccccc1)C(=O)O | Noggin (protein binding on small-molecule microarray) | -0.0061
C=CCC(OC(C)=O)[C@@H]1[C@@H](N(Cc2ccc(-c3ccccc3)cc2)C(=O)c2ccc(C)cc2)c2cc(OCCCO)ccc2N1C(=O)c1ccc2ccccc2n1 (stereo not given in full) | Noggin (protein binding on small-molecule microarray) | -0.267
CC(C)OC(=O)C1=CCC(c2cccc(Cl)c2)O1 (stereo not given) | Noggin (protein binding on small-molecule microarray) | -0.523
